// data source = patent US20220370440A1

Listing: pIC50 of selected compounds
Assay target: HER2 INS YVMA (Homo sapiens, UniProt P04626, INS775YVMA)
Construct: purchased DPF
Sequence (P04626 with tags, fused parts or gaps INS775YVMA): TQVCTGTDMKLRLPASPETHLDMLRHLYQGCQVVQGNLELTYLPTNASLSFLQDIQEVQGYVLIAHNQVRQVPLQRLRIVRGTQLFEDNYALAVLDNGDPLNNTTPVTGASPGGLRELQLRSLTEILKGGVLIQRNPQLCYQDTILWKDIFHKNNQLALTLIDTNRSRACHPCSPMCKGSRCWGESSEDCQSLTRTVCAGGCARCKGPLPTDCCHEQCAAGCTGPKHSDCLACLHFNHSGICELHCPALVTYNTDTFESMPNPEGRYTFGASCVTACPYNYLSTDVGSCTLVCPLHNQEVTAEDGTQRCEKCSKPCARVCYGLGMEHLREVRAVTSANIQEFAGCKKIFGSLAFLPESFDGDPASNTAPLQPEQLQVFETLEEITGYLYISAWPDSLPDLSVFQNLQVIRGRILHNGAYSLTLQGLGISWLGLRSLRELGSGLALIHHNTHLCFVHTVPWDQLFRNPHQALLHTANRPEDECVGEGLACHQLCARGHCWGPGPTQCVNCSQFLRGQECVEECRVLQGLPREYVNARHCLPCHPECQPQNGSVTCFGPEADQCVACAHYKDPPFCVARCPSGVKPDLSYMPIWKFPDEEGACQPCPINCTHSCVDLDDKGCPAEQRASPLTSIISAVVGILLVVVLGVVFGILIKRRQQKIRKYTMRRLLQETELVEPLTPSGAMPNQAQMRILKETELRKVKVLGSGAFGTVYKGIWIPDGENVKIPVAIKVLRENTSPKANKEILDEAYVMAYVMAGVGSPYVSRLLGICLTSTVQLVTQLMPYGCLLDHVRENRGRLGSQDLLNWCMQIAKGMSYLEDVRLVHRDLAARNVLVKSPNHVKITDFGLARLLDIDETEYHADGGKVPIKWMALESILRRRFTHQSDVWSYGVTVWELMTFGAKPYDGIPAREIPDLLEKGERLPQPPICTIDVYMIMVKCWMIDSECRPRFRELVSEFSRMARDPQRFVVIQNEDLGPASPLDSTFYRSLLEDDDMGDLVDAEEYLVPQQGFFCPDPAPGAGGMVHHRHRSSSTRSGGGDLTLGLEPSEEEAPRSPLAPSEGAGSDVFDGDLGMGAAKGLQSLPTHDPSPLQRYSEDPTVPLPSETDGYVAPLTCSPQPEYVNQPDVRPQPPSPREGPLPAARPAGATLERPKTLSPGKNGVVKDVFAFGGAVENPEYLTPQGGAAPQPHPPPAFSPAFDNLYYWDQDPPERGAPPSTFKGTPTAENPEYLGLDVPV
Method description: Lance Kinase Activity Assay, HER2 INS YVMA (Her2 Exon 20 INSYVMA Lance)
Format: biochemical
Condition description: biochemical Lance assay
pIC50: −log10 of the molar value.

Recorded results for 3 compounds are shown here.
>  <Compound>
C=CC(=O)Nc1cc(-c2c(-c3ccc(N4CCN(C)CC4)cc3)[nH]c3ncc(CC(=O)N(C)C)cc23)ccc1C [Example 194, 2,2,2-trifluoroacetate]

>  <Result>
≥ 7.00

$$$$
>  <Compound>
C=CC(=O)Nc1cc(-c2c(-c3cccc(C(=O)NC4CCN(Cc5ccccc5)CC4)c3)[nH]c3nccc(Cl)c23)ccc1C

>  <Result>
≥ 7.00

$$$$
>  <Compound>
C=CC(=O)Nc1cc(-c2c(-c3ccnc(N4CCN(C)CC4)c3)[nH]c3ncc(C(=O)OC(C)C)cc23)ccc1C [Example 156, 2,2,2-trifluoroacetate]

>  <Result>
≥ 7.00

$$$$

## Task Param item = C=CC(=O)Nc1cc(-c2c(-c3ccc(F)c(C(=O)N4CCOCC4)c3)[nH]c3nccc(Cl)c23)ccc1C ; retrieve measured pIC50.
## Result 5.00 to 6.00

## Task Returns the measured pIC50 for the input compound. Input: C=CC(=O)Nc1cc(-c2c(-c3cccc(OCCCN(C)C)c3)[nH]c3ncc(C(=O)OC(C)C)cc23)ccc1C
## Result ≥ 7.00

* * *

Assay target: EGFR Exon 20 INSNPH Ba/F3 (Homo sapiens, UniProt P00533, DUP771-773, cells depend on it)
Sequence (P00533 with tags, fused parts or gaps DUP771-773): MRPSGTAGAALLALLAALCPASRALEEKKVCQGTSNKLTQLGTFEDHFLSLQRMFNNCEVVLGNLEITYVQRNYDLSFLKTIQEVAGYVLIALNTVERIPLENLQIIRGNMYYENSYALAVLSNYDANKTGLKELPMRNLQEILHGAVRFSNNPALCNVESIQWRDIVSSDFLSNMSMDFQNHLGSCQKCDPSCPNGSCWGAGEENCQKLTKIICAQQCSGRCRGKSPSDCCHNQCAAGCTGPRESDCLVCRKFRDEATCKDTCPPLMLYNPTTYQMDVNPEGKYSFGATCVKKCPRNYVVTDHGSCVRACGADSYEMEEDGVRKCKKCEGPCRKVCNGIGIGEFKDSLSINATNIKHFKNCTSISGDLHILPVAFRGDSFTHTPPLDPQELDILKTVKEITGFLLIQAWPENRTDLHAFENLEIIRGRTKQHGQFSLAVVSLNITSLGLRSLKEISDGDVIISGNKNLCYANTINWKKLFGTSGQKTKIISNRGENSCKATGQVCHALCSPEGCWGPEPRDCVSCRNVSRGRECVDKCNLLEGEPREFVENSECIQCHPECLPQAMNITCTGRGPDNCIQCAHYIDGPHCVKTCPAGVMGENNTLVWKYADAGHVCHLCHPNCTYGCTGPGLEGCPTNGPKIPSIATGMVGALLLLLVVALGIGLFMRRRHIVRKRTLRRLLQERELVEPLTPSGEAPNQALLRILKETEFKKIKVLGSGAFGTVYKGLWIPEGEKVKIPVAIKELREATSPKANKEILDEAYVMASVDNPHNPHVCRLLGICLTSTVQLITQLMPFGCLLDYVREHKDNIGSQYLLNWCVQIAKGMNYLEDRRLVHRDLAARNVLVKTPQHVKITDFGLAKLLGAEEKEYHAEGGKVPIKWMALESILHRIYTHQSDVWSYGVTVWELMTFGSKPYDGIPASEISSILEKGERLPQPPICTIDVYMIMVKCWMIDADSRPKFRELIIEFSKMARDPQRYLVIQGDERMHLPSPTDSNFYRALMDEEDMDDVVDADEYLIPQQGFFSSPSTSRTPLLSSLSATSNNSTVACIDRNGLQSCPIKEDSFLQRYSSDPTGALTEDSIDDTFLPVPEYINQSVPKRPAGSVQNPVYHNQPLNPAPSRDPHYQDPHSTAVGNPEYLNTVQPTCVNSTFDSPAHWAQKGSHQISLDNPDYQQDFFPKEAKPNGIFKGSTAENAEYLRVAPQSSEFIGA
Method description: EGFR Exon 20 INSNPH Ba/F3 CellTiter-Glo
Type: cell-based
Condition description: CellTiter-Glo, 72 h, read-out: EGFR Exon 20 INSNPH Ba/F3 CTG IC50
Reported GI50 is given for each of the following molecules.

Answered examples (2):
>  <Structure smiles string>
C=CC(=O)Nc1cc(-c2c(-c3cncnc3)[nH]c3nccc(Cl)c23)ccc1C

>  <Result>
500 to 1000 nM

$$$$
>  <Structure smiles string>
C=CC(=O)Nc1cc(-c2c(-c3ccc(CN4CCOCC4)cc3)[nH]c3nccc(OC)c23)ccc1C

>  <Result>
≤ 100 nM

$$$$

Continue with the molecule presented below.
## Task Given the molecule C=CC(=O)Nc1cc(-c2c(-c3ccc(S(=O)(=O)N4CCN(C)CC4)cc3)[nH]c3ncc(C(=O)OC(C)C)cc23)ccc1C , what is its reported GI50?
## Result 500 to 1000 nM

* * *

Assay target: EGFR wt (Homo sapiens)
Sequence (P00533 25-1210): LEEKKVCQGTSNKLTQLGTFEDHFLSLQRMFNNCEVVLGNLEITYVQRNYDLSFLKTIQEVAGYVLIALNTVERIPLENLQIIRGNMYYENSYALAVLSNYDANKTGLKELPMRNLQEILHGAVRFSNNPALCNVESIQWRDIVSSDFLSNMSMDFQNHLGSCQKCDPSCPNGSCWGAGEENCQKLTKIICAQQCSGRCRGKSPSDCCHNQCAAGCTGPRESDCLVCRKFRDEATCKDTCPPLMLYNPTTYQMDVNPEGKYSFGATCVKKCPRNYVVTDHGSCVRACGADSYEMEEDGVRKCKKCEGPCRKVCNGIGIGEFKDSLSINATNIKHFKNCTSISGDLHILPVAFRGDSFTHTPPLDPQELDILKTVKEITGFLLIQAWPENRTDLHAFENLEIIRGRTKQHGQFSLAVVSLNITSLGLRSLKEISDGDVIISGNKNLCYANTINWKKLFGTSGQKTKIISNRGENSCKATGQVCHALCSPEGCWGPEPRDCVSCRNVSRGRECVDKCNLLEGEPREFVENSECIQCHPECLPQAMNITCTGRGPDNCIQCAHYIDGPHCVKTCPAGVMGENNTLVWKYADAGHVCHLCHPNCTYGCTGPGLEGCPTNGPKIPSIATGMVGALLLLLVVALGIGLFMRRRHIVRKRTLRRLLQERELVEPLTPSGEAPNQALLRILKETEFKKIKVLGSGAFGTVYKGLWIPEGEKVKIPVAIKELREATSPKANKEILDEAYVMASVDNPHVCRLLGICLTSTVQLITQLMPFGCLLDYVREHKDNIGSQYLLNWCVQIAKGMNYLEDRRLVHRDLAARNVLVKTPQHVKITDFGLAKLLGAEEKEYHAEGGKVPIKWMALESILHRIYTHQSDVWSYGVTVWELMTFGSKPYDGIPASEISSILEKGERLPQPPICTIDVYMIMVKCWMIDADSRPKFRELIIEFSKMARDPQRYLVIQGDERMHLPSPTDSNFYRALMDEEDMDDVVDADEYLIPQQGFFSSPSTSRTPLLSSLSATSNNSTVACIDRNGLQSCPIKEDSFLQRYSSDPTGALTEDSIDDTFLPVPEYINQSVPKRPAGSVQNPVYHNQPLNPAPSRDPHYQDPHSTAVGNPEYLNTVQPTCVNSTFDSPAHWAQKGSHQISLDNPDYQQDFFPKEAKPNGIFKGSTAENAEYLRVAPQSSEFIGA
Measured quantity: IC50

Below, each entry is followed by its recorded IC50 result.
>  <Compound>
C=CC(=O)Nc1cc(-c2c(-c3cccc(C(=O)N4CCCCCC4)c3)[nH]c3nccc(Cl)c23)ccc1C

>  <Result>
1000 to 100000 nM

$$$$
>  <Compound>
C=CC(=O)N1CCc2ccc(-c3c(-c4ccc(OCCN5CCCC5)cc4)[nH]c4nccc(OC)c34)cc21

>  <Result>
≤ 100 nM

$$$$
>  <Compound>
C=CC(=O)Nc1cc(-c2c(-c3ccc(N4CCN(C)CC4)cc3)[nH]c3ncc(CC(=O)O)cc23)ccc1C [Example 189, 2,2,2-trifluoroacetate]

>  <Result>
≤ 100 nM

$$$$

## Task Look up IC50: C=CC(=O)Nc1cc(-c2c(-c3cnc(N4CCOCC4)nc3)[nH]c3ncc(C(=O)OC(C)C)cc23)ccc1C
## Result 500 to 1000 nM

## Task Name the reported IC50 value associated with the compound C=CC(=O)N1CCc2ccc(-c3c(-c4ccc(N5CCN(C)CC5)cc4)[nH]c4ncc(C(=O)OC(C)C)cc34)cc21
## Result ≤ 100 nM
